Cited source for all entries: patent US20260209345A1

Quick list: log10 of Kd per entry.
- subject.of.test: T1, recombinant LILRB2 ECD (human, UniProt Q8N423 22-460)
- T1 construct: also called biotinylated LILRB2 ECD
- assay.remarks: BLI, IgG on AHC sensor, ECD in solution
test.readout: log10 of Kd (log10 of the value in nM)

{"columns": ["binder", "log10 of Kd"],
 "data": [
  ["A-030 (antibody, V domains shown, tested as IgG) VH: QVQLVQSGAEVKKPGSSVKVSCKASGGSFQSYAFSWVRQAPGQGLEWMGGIVPIYYTATYAQKFQGRVTITADESTSTAYMELSSLRSEDTAVYYCAKGPPVGSSSWYTDWYFDLWGRGTLVTVSS VL: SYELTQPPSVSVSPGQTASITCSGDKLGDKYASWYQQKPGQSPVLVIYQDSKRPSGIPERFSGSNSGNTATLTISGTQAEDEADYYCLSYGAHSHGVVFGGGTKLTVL", 0.51],
  ["A-012 (antibody, V domains shown, tested as IgG) VH: QVQLVQSGAEVKKPGSSVKVSCKASGGTISEYAFLWVRQAPGQGLEWMGGIIPKFHTANYAQKFQGRVTITADESTSTAYMELSSLRSEDTAVYYCAKDLGTYSSGWPYYYGMDVWGQGTTVTVSS VL: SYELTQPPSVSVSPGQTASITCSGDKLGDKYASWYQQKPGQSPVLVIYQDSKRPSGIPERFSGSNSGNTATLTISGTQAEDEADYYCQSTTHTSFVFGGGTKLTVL", 0.83],
  ["A-025 (antibody, V domains shown, tested as IgG) VH: QVQLVQSGAEVKKPGSSVKVSCKASGYTFSKSAMSWVRQAPGQGLEWMGGIVPKFHTSVYAQKFQGRVTITADESTSTAYMELSSLRSEDTAVYYCAKGPPVGSSSWYTDWYFDLWGRGTLVTVSS VL: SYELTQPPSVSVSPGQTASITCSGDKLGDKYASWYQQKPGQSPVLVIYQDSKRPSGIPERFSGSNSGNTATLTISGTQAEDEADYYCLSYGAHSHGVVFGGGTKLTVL", 0.62],
  ["A-008 (antibody, V domains shown, tested as IgG) VH: QVQLVQSGAEVKKPGSSVKVSCKASGGTFAESAILWVRQAPGQGLEWMGGIVPSFYSANYAQKFQGRVTITADESTSTAYMELSSLRSEDTAVYYCAKDLGTYSSGWPYYYGMDVWGQGTTVTVSS VL: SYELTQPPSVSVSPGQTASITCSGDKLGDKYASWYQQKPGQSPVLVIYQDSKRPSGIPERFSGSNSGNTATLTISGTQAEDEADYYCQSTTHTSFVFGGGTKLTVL", 0.94],
  ["A-040 (antibody, V domains shown, tested as IgG) VH: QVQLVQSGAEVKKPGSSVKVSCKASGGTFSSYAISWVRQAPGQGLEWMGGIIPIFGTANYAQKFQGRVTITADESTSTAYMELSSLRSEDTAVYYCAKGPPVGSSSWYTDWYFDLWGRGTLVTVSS VL: SYELTQPPSVSVSPGQTASITCSGDKLGDKYASWYQQKPGQSPVLVIYQDSKRPSGIPERFSGSNSGNTATLTISGTQAEDEADYYCSLYGPAHTGVFGGGTKLTVL", -0.52]
]}
